Below is a list of entries, each paired with its recorded fold-change in binding over parental HEK293 cells value.
# TARGET_OF_ASSAY: T1, cynomolgus (cyno) TMEM106B (cynomolgus, UniProt Q9NUM4 2-274 (human entry))
# T1 construct: Full-length cDNA transiently transfected into HEK293 cells
# ASSAY_SUMMARY: flow cytometry, HEK293 cells transiently transfected with cyno TMEM106B
MEASURE: fold-change in binding over parental HEK293 cells (fold)

- BINDER: "TM-91 (antibody, V domains shown, Purified from mouse hybridoma) VH: DVQLQESGPGLVKPSQSLSLTCSVTGYSITSGYYWDWIRQFPGNKLEWMGYISYDGNNNYNPSLKNRISITRDTSKNQFFLKLNSVTTEDTATYYCARAVYSVGFAYWGQGTLVTVSS VL: DIVMTQSQKFMSTSVGDRVSVTCKASQNVYTNVAWYQQKPGQSPKPLIYSASYRYSGVPDRFTGSGSGTDFTLTISNVQSEDLAEYFCQQYNSYPLTFGGGTKLEIK"
  UNIT_ABBREVIATION: "fold"
  NUMERIC_VALUE: 2.45
- BINDER: "TM-94 (antibody, V domains shown, Purified from mouse hybridoma) VH: EVQLQQSGPELVKPGASVKIPCKASGYTFTDYNMDWVKQSHGKSLEWIGDINPYNGGTLYNQKFKGKATLTVDKSSNTAYMEIRSLTYEDTAVYYCARVGYHGTPDYWGQGTTVTVSS VL: DVVMTQTPLSLPVSLGDQASISCRSSQSLVYSNGNTYLHWYLQRPGQSPKLLIYKVSNRFSGVPDRFSGSGSGTDFTLKISRVEAEDLGVYFCSQSTHVYTFGGGTKLEIK"
  UNIT_ABBREVIATION: "fold"
  NUMERIC_VALUE: 6.1
- BINDER: "TM-93 (antibody, V domains shown, Purified from mouse hybridoma) VH: QVQLKESGPGLVAPSQSLSITCTVSGFSLSSYGISWVRQPPGKGLEWLGVIWTGGGTNYNSALESRLSITKDNSKSQVFLKMNSLQTDDTARYYCARNPPKIFYDYLMYFDYWGQGTTVTVSS VL: DIVMTQSHKLMSTSVGDRVSITCKASQDVGSAVAWYQQKPGQSPQLLIYWSSTRLPGVPDRFTGSGSGTDFTLTISNVQSEVLADYFCQQYTSYPLTFGGGTKLEIK"
  UNIT_ABBREVIATION: "fold"
  NUMERIC_VALUE: 9.21
